- assay method text: Acute Toxicity Test
- condition context: mouse, in vivo, ip; Intraperitoneal Injection; female ICR mice; day 14; read-out: Acute Toxicity(LD₅₀)
parameter: LD50 at 336 h (mg/kg)
Return type: number; implicit unit mg/kg.

Summary for this molecule, C[C@H]1COc2c(N3CCC4(CC4N)C3)c(F)cc3c(=O)c(C(=O)O)cn1c23 (stereo partly shown) [Example 13] : LD50 at 336 h is 620

###

We begin with a simple list: items and their reported MIC.
- Test system: Pseudomonas aeruginosa 1771 M
- assay method text: In vitro anti-bacterial activity test (MIC, two-fold dilution method) against the standard strains
- Format: cell-based
- condition context: Table 1 strain 15: Pseudomonas aeruginosa 1771 M
Return type: number; implicit unit µg/mL.

molecule | study target | MIC (µg/mL)
O=C(O)c1cn(C2CC2)c2cc(N3CCNCC3)c(F)cc2c1=O [Ciprofloxacin, ciprofloxacin, reference compound] | Pseudomonas aeruginosa 1771 M | 0.098
Nc1c(F)c(N2CCC3(CC3N)C2)c(F)c2c1c(=O)c(C(=O)O)cn2C1CC1 (stereo not shown) | Pseudomonas aeruginosa 1771 M | 0.391
CC(O)C(=O)O.NC1CC12CCN(c1c(F)cc3c(=O)c(C(=O)O)cn(C4CC4)c3c1F)C2 (stereo not shown) | Pseudomonas aeruginosa 1771 M | 0.098

Read the next record carefully.
Summary for this molecule, NC1CC12CCN(c1cc3c(cc1F)c(=O)c(C(=O)O)cn3C1CC1)C2 (stereo not shown) : MIC is 0.391

###

- System: Staphylococcus aureus 692 E
- assay method text: In vitro anti-bacterial activity test (MIC, two-fold dilution method), Table 2 strains
- Format: cell-based
- condition context: Table 2 strain 6: Staphylococcus aureus 692 E
We begin with a simple list: items and their reported MIC.
Return type: number; implicit unit µg/mL.

Past entries and their recorded results:
compound | parameter | endpoint unit | reported measurement
CC1COc2c(N3CCN(C)CC3)c(F)cc3c(=O)c(C(=O)O)cn1c23 (centres unmarked) [Ofloxacin, ofloxacin, reference compound] | MIC | µg/mL | 0.391
CNC1CC12CCN(c1c(F)cc3c(=O)c(C(=O)O)cn(C4CC4)c3c1Cl)C2 (centres unmarked) | MIC | µg/mL | 0.049
CNC1CC12CCN(c1c(F)cc3c(=O)c(C(=O)O)cn(C4CC4)c3c1F)C2 (centres unmarked) | MIC | µg/mL | 0.049

Summary for this compound, O=C(O)c1cn(C2CC2)c2cc(N3CCNCC3)c(F)cc2c1=O [Ciprofloxacin, ciprofloxacin, reference compound] : MIC is 0.391

Summary for this compound, Nc1c(F)c(N2CCC3(CC3N)C2)c(F)c2c1c(=O)c(C(=O)O)cn2C1CC1 (centres unmarked) : MIC is 0.013

###

We begin with a simple list: items and their reported MIC.
- Tested on: Enterobacter cloacae 1321 E
- assay method text: In vitro anti-bacterial activity test (MIC, two-fold dilution method) against the standard strains
- Format: cell-based
- condition context: Table 1 strain 20: Enterobacter cloacae 1321 E
Return type: number; implicit unit µg/mL.

Summary for this compound, NC1CC12CCCN(c1c(F)cc3c(=O)c(C(=O)O)cn(C4CC4)c3c1F)C2 (stereo not shown) [Example 16] : MIC is 0.049

Summary for this compound, NC1CC12CCN(c1c(F)cc3c(=O)c(C(=O)O)cn(C4CC4)c3c1F)C2 (stereo not shown) [Example 1] : MIC is 0.004

Summary for this compound, NC1CC12CCN(c1cc3c(cc1F)c(=O)c(C(=O)O)cn3C1CC1)C2 (stereo not shown) [Example 5] : MIC is 0.025

Summary for this compound, C[C@H]1COc2c(N3CCC4(CC4N)C3)c(F)cc3c(=O)c(C(=O)O)cn1c23 (stereo partly shown) [Example 13] : MIC is 0.049

Summary for this compound, CC(O)C(=O)O.NC1CC12CCN(c1c(F)cc3c(=O)c(C(=O)O)cn(C4CC4)c3c1Cl)C2 (stereo not shown) [Example 4] : MIC is 0.007

Summary for this compound, CNC1CC12CCN(c1c(F)c(N)c3c(=O)c(C(=O)O)cn(C4CC4)c3c1F)C2 (stereo not shown) [Example 12] : MIC is 0.025

Summary for this compound, COc1c(N2CCC3(CC3N)C2)c(F)cc2c(=O)c(C(=O)O)cn(C3CC3)c12 (stereo not shown) [Example 19] : MIC is 0.025

Summary for this compound, CNC1CC12CCN(c1c(F)cc3c(=O)c(C(=O)O)cn4c3c1OC[C@@H]4C)C2 (stereo partly shown) [Example 10] : MIC is 0.025
